These entries and their values trace back to PubChem BioAssay AID1159580.

assay: chemical genetic growth profiling, strain panel (AID 1159580);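 further: tested at 20 µM; growth read once vehicle control cultures reached saturation at 30 °C; 1 = growth at the plate median or of vehicle wells; lower values mean less growth of the strain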; settings: S. cerevisiae deletion strains, growth OD, locus YGL248W, strain PDE1, hits give low values
About 2,000 (36%) of roughly 5,500 compounds were called active. Another 18% or so got no clear call; they are omitted. Some of the results follow.
Documented normalized growth across a set of compounds
Give only the figure.

Take a look at these entries with their results.
INSERT INTO assay_data (compound, measured_number) VALUES
  ('C=C1C[C@]23C[C@@]1(O)CC[C@H]2[C@@]12C=C[C@H](O)[C@@](C)(C(=O)O1)[C@H]2[C@@H]3C(=O)O', 1.01),
  ('C[n+]1ccccc1/C=N/O', 1.01),
  ('NCCCCCCNS(=O)(=O)c1cccc2c(Cl)cccc12', 0.968),
  ('CN(C)[C@@H]1C(=O)C(C(N)=O)=C(O)[C@@]2(O)C(=O)C3=C(O)c4c(O)cccc4[C@@](C)(O)[C@H]3[C@H](O)[C@@H]12', 1);

[in] Answer with reported normalized growth of `CC(=O)Oc1cccc(O)c1`
[out] 1.01

[in] Answer with reported normalized growth of CC(C)CCCC(C)[C@H]1CCC2C3CC=C4CC(=O)CC[C@]4(C)C3CC[C@@]21C (stereo not given in full)
[out] 0.922

[in] Answer with reported normalized growth of CC(=O)O[C@H]1CC[C@@]2(C)C(C[C@@H](OC(C)=O)[C@@]3(C)C4=CC(=O)O[C@@H](c5ccoc5)[C@]4(C)CCC23)C1(C)C (stereo not given in full)
[out] 1

[in] Answer with reported normalized growth of CC(C)CC1NC(=O)CNC1=O (stereo not given)
[out] 0.981

[in] Answer with reported normalized growth of `CN(C)[C@@H]1C(=O)C(C(N)=O)=C(O)[C@@]2(O)C(=O)C3=C(O)c4c(O)ccc(Cl)c4[C@@H](O)[C@H]3C[C@@H]12`
[out] 0.988
